tested on: THRa:RXRa (NR concentration 90 nM, RXRa partner concentration 90 nM); experiment: PBM binding z-score (relative to random genomic background probes); higher = stronger binding; sequences stand for … in GC…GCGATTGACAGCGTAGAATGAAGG
Overview of reported PBM binding z-score across a group of sequences:
No unit in the answer, only the number.

Worked examples, 2 sequences total:
>>> observed_measurement("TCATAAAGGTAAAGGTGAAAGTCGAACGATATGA")
1.73
>>> observed_measurement("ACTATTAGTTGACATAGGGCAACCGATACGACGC")
1.25

We now examine a further sequence.
What does the record list as PBM binding z-score for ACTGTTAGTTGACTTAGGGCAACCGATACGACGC ? 1.51

----------
system: RARg:RXRa (NR concentration 270 nM, RXRa partner concentration 90 nM); assay: PBM binding z-score (relative to random genomic background probes); higher = stronger binding; sequences stand for … in GC…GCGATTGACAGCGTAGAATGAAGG
observable: PBM binding z-score
Keep the answer to the number alone.

The examples below pair each entry with its known result.
>>> observed_measurement("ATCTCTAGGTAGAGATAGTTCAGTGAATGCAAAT")
0.166
>>> observed_measurement("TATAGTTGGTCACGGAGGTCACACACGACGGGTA")
4.81
>>> observed_measurement("ACTTACGGGTCAACGAGTTTATAGCACGCGTATA")
5.13
>>> observed_measurement("ATCTCTAGTTAAAAGTTCAGTGAATCCCGAGGAT")
1.3
>>> observed_measurement("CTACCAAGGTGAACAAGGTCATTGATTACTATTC")
3.75
>>> observed_measurement("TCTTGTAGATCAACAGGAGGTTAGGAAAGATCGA")
0.361
>>> observed_measurement("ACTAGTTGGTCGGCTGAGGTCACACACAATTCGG")
3.76
>>> observed_measurement("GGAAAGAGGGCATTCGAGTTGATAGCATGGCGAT")
1.81
>>> observed_measurement("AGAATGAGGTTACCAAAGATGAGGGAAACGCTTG")
1.85
>>> observed_measurement("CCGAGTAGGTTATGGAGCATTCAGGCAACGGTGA")
0.362

Give the measured PBM binding z-score of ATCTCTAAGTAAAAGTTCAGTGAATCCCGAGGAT . 1.54

Could you tell me which PBM binding z-score is on file for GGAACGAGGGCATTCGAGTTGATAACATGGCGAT ? 1.41

Quick check: PBM binding z-score of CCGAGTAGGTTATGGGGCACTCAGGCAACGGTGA ? 0.475

// query PBM binding z-score value for entry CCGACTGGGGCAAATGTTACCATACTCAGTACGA 0.382

----------
test system: RARb homodimer (NR concentration 270 nM); assay: PBM binding z-score (relative to random genomic background probes); higher = stronger binding; sequences stand for … in GC…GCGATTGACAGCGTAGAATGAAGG
observable: PBM binding z-score
No unit in the answer, please; the number alone is enough.

>>> observed_measurement("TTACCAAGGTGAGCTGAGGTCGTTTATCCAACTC")
1.47
>>> observed_measurement("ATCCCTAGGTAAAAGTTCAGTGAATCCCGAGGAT")
2.41
>>> observed_measurement("ACTAGTTGGCCAGCTGAGGTCACACACAATTCGG")
3.96
>>> observed_measurement("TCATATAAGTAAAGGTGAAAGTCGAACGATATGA")
1.41
>>> observed_measurement("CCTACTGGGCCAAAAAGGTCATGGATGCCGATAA")
1.31
>>> observed_measurement("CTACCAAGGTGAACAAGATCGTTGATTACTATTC")
0.653
>>> observed_measurement("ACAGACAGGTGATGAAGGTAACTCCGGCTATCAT")
0.376
>>> observed_measurement("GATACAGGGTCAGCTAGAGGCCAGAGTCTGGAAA")
3.39

Report PBM binding z-score for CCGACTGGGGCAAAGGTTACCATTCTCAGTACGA please. 2.08

Report PBM binding z-score for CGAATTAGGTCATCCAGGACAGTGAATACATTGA please. 3.34

----------
test system: PPARg:RXRa (NR concentration 180 nM, RXRa partner concentration 90 nM); assay: PBM binding z-score (relative to random genomic background probes); higher = stronger binding; sequences stand for … in GC…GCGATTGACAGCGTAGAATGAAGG
Reported PBM binding z-score by item:

Example entries and their recorded answers appear below.
>>> observed_measurement("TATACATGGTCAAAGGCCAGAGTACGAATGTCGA")
3.14
>>> observed_measurement("TCATATAGGTAATACAGGTGAAACTCGGCATCTA")
1.85

Recorded PBM binding z-score of TCTTGTAGATCAAGCAGGATAAGAAAGCCTGAGT , please. -0.0969

Query: PBM binding z-score; subject: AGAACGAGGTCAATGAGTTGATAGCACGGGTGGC 6.36

Which PBM binding z-score value belongs to ATCTGTAGGTAAAAGTTCAGTGAATCCCGAGGAT ? 8.09

Query: PBM binding z-score; subject: TCTCGGAGGACAAGAAAGGTCAGAGCTCGACATC 0.803

Which measured PBM binding z-score value corresponds to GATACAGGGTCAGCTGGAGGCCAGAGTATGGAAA ? 3.91

----------
tested on: RARb homodimer (NR concentration 270 nM); assay: PBM binding z-score (relative to random genomic background probes); higher = stronger binding; sequences stand for … in GC…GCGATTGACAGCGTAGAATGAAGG
observable: PBM binding z-score
Just the number.

Here are 3 sequences together with their reported answers.
>>> observed_measurement("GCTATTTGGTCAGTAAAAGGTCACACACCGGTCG")
5.41
>>> observed_measurement("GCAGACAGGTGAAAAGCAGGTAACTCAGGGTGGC")
0.095
>>> observed_measurement("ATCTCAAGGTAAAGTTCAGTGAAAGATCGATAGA")
2.72

Quick one: PBM binding z-score for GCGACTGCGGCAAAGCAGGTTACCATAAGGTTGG ? 0.0926

Entry under review: ACAGACGGGTGAGTGAAGGTAACTCAGCTGGACG . Reported PBM binding z-score? 0.0268

Please give the measured PBM binding z-score for this sequence: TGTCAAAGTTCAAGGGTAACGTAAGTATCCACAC 3.92

Which PBM binding z-score is reported for this sequence? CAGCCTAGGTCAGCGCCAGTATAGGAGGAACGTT 2.6

Which PBM binding z-score is listed for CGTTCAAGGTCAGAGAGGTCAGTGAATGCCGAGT ? 5.35

Param item = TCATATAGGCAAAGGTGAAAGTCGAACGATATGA ; retrieve measured PBM binding z-score. 1.42

----------
Documented PBM binding z-score across a set of sequences
test system: PPARa:RXRa (NR concentration 270 nM, RXRa partner concentration 90 nM); experiment: PBM binding z-score (relative to random genomic background probes); higher = stronger binding; sequences stand for … in GC…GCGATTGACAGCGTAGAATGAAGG

>>> observed_measurement("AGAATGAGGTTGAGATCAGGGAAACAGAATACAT")
0.66
>>> observed_measurement("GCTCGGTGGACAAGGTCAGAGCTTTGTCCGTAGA")
2.09
>>> observed_measurement("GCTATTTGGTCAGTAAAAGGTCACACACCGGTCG")
4.7
>>> observed_measurement("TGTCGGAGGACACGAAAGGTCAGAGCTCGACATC")
3.69
>>> observed_measurement("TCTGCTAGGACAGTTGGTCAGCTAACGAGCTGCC")
-0.722
>>> observed_measurement("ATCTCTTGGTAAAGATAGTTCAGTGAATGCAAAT")
0.553

Report PBM binding z-score for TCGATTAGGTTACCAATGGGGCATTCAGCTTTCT tested on PPARa:RXRa (NR concentration 270 nM, RXRa partner concentration 90 nM). 1.21

Recall the recorded PBM binding z-score for GCAGACAGGTGAAACGCAGGTAAGTCAGGGTGGC with PPARa:RXRa (NR concentration 270 nM, RXRa partner concentration 90 nM) and state it. 0.476

Fill in the recorded PBM binding z-score for this sequence, with PPARa:RXRa (NR concentration 270 nM, RXRa partner concentration 90 nM) as test system: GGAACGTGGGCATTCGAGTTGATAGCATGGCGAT -1.09

GET /values?readout=PBM binding z-score&system=PPARa:RXRa (NR concentration 270 nM, RXRa partner concentration 90 nM)&item= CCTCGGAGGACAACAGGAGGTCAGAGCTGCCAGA 1.99

Reported PBM binding z-score for PPARa:RXRa (NR concentration 270 nM, RXRa partner concentration 90 nM), given CGTCCAAGGTCAATGCTAGGTGAGTGAAAGCATT ? 4.69
